Data origin: PubChem BioAssay AID1919001

Please go through the items and note down their viability, T/C.
System: 699152-130-R-J1-PDC complex spheroid growth;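 further: compound exposure lasted 7 days after spheroids had grown for 3 days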
Assay: Anticancer human tumor 699152-130-R-J1-PDC patient-derived pancreatic carcinoma cell line growth inhibition [AhR]
Details: second compound 10 µM; first compound 0.0316 µM; hits give low values
Answers are plain numbers, in %.

COc1cccc2c1C(=O)c1c(O)c3c(c(O)c1C2=O)CC(O)(C(=O)CO)CC3OC1CC(N)C(O)C(C)O1 (stereo unspecified) + Cc1ccccc1N=Nc1ccc(NC(=O)c2ccnn2C)c(C)c1: 74.4

Report viability, T/C for each item below.
1. COc1cc(C2c3cc4c(cc3C(OC3OC5COC(C)OC5C(O)C3O)C3COC(=O)C23)OCO4)cc(OC)c1O (stereo unspecified) + CC(CO)NC(=O)c1cc(-c2ccc(Cl)cc2)nn(-c2cnn(C)c2)c1=O
2. Nc1ccccc1NC(=O)c1ccc(CNC(=O)OCc2cccnc2)cc1 + Cc1cncc(-c2nc(NCCc3c[nH]c4ccccc34)c3ncn(C(C)C)c3n2)c1
3. Cn1ncnc1C1c2n[nH]c(=O)c3cc(F)cc(c23)NC1c1ccc(F)cc1 (stereo unspecified) + CC(CO)NC(=O)c1cc(-c2ccc(Cl)cc2)nn(-c2cnn(C)c2)c1=O
4. Nc1ncn(C2CC(O)C(CO)O2)c(=O)n1 (stereo unspecified) + Cc1ccccc1N=Nc1ccc(NC(=O)c2ccnn2C)c(C)c1
5. O=C(c1cc(Cc2n[nH]c(=O)c3ccccc23)ccc1F)N1CCN(C(=O)C2CC2)CC1 + CC(CO)NC(=O)c1cc(-c2ccc(Cl)cc2)nn(-c2cnn(C)c2)c1=O

Out:
1. 77.6
2. 11.6
3. 80.1
4. 75.3
5. 84.3
